B1: DVL3 (parent)
chain: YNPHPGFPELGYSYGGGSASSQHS

variants of: B1; assay: protein stability index of a GFP-peptide fusion (GPS, HEK-293T) (PSI 1-6); higher = more stable; conditions: c terminus: a fixed tail appended;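 also: lentivirally expressed fusions sorted by FACS into six bins by GFP to DsRed ratio, PSI derived from sequencing read proportions per bin multiplied by bin number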
Binary classification by protein stability index, with 3 as an inclusive lower bound for satisfied; all other cases are not satisfied.

Enquiry: Given the entry `S20H` , answer whether its protein stability index meets or surpasses 3.
Return: not satisfied

Enquiry: Given the entry `G6H` , answer whether its protein stability index meets or surpasses 3.
Return: not satisfied

Enquiry: Given the entry `H4C` , answer whether its protein stability index meets or surpasses 3.
Return: not satisfied

Enquiry: Given the entry `A19M` , answer whether its protein stability index meets or surpasses 3.
Return: not satisfied

Enquiry: Given the entry `H4G` , answer whether its protein stability index meets or surpasses 3.
Return: not satisfied

Enquiry: Given the entry `S13D` , answer whether its protein stability index meets or surpasses 3.
Return: satisfied

Enquiry: Given the entry `S24H` , answer whether its protein stability index meets or surpasses 3.
Return: not satisfied

Enquiry: Given the entry `G15H` , answer whether its protein stability index meets or surpasses 3.
Return: not satisfied

Enquiry: Given the entry `Q22F` , answer whether its protein stability index meets or surpasses 3.
Return: not satisfied

Enquiry: Given the entry `H4R` , answer whether its protein stability index meets or surpasses 3.
Return: not satisfied

Enquiry: Given the entry `L10D` , answer whether its protein stability index meets or surpasses 3.
Return: satisfied

Enquiry: Given the entry `Y12K` , answer whether its protein stability index meets or surpasses 3.
Return: not satisfied

Enquiry: Given the entry `E9A` , answer whether its protein stability index meets or surpasses 3.
Return: not satisfied

Enquiry: Given the entry `L10N` , answer whether its protein stability index meets or surpasses 3.
Return: satisfied

Enquiry: Given the entry `S20Y` , answer whether its protein stability index meets or surpasses 3.
Return: not satisfied

Enquiry: Given the entry `G15R` , answer whether its protein stability index meets or surpasses 3.
Return: not satisfied

Enquiry: Given the entry `G17F` , answer whether its protein stability index meets or surpasses 3.
Return: not satisfied

Enquiry: Given the entry `F7W` , answer whether its protein stability index meets or surpasses 3.
Return: not satisfied

Enquiry: Given the entry `S18E` , answer whether its protein stability index meets or surpasses 3.
Return: satisfied

Enquiry: Given the entry `L10S` , answer whether its protein stability index meets or surpasses 3.
Return: satisfied

Enquiry: Given the entry `H23T` , answer whether its protein stability index meets or surpasses 3.
Return: satisfied

Enquiry: Given the entry `S24E` , answer whether its protein stability index meets or surpasses 3.
Return: not satisfied

Enquiry: Given the entry `S24F` , answer whether its protein stability index meets or surpasses 3.
Return: not satisfied

Enquiry: Given the entry `P8T` , answer whether its protein stability index meets or surpasses 3.
Return: satisfied

Enquiry: Given the entry `Y1H` , answer whether its protein stability index meets or surpasses 3.
Return: satisfied

Enquiry: Given the entry `Y12Q` , answer whether its protein stability index meets or surpasses 3.
Return: satisfied

Enquiry: Given the entry `S21A` , answer whether its protein stability index meets or surpasses 3.
Return: satisfied

Enquiry: Given the entry `G15Y` , answer whether its protein stability index meets or surpasses 3.
Return: not satisfied

Enquiry: Given the entry `F7K` , answer whether its protein stability index meets or surpasses 3.
Return: satisfied

Enquiry: Given the entry `H23F` , answer whether its protein stability index meets or surpasses 3.
Return: not satisfied

Enquiry: Given the entry `P8V` , answer whether its protein stability index meets or surpasses 3.
Return: not satisfied

Enquiry: Given the entry `G17I` , answer whether its protein stability index meets or surpasses 3.
Return: not satisfied

Enquiry: Given the entry `G6W` , answer whether its protein stability index meets or surpasses 3.
Return: not satisfied

Enquiry: Given the entry `G17W` , answer whether its protein stability index meets or surpasses 3.
Return: not satisfied

Enquiry: Given the entry `G16C` , answer whether its protein stability index meets or surpasses 3.
Return: not satisfied

Enquiry: Given the entry `P3G` , answer whether its protein stability index meets or surpasses 3.
Return: not satisfied

Enquiry: Given the entry `P8D` , answer whether its protein stability index meets or surpasses 3.
Return: satisfied

Enquiry: Given the entry `F7M` , answer whether its protein stability index meets or surpasses 3.
Return: satisfied

Enquiry: Given the entry `Y12R` , answer whether its protein stability index meets or surpasses 3.
Return: not satisfied

Enquiry: Given the entry `A19W` , answer whether its protein stability index meets or surpasses 3.
Return: not satisfied

Enquiry: Given the entry `G11E` , answer whether its protein stability index meets or surpasses 3.
Return: satisfied

Enquiry: Given the entry `Y14V` , answer whether its protein stability index meets or surpasses 3.
Return: satisfied

Enquiry: Given the entry `P8A` , answer whether its protein stability index meets or surpasses 3.
Return: not satisfied

Enquiry: Given the entry `F7Y` , answer whether its protein stability index meets or surpasses 3.
Return: not satisfied

Enquiry: Given the entry `P5D` , answer whether its protein stability index meets or surpasses 3.
Return: satisfied

Enquiry: Given the entry `G15C` , answer whether its protein stability index meets or surpasses 3.
Return: not satisfied

Enquiry: Given the entry `P8G` , answer whether its protein stability index meets or surpasses 3.
Return: satisfied

Enquiry: Given the entry `S20V` , answer whether its protein stability index meets or surpasses 3.
Return: satisfied

Enquiry: Given the entry `P3F` , answer whether its protein stability index meets or surpasses 3.
Return: not satisfied

Enquiry: Given the entry `P5F` , answer whether its protein stability index meets or surpasses 3.
Return: not satisfied

Enquiry: Given the entry `P5N` , answer whether its protein stability index meets or surpasses 3.
Return: not satisfied

Enquiry: Given the entry `G16Y` , answer whether its protein stability index meets or surpasses 3.
Return: not satisfied

Enquiry: Given the entry `E9Y` , answer whether its protein stability index meets or surpasses 3.
Return: not satisfied

Enquiry: Given the entry `G6M` , answer whether its protein stability index meets or surpasses 3.
Return: not satisfied
